// data source = PubChem BioAssay (NCI)

Exercise: state measured TGI for each of the compounds provided.
- Test system: MOLT-4 leukemia
- testDetails: NCI tumour cell line growth inhibition, 48 h

Q: Give the measured TGI of CC1OC(OC2C(O[C@H]3CC[C@@]4(C)C(=CC[C@H]5[C@@H]6C[C@@H]7O[C@]8(CC[C@@H](C)CO8)[C@@H](C)[C@@H]7[C@@]6(C)CC[C@@H]54)C3)OC(CO)C(O)C2O)C(O)C(O)C1O (some centres undefined) .
Result: > 25 µM

Q: Give the measured TGI of COC1C(N(C)C)=C(c2ccccc2)C(=O)N2CCc3ccccc3C12 (centres undefined) .
Result: > 100 µM

Q: Give the measured TGI of CC(C)=CC[C@]12CCN(C)[C@H]1N(S(=O)(=O)c1ccccc1)c1ccccc12 .
Result: > 100 µM

Q: Give the measured TGI of CCN1C(=NCCO)NS(=O)(=O)c2ccccc21 .
Result: > 100 µM

Q: Give the measured TGI of C(#CP(c1ccccc1)c1ccccc1)P(C#CP(c1ccccc1)c1ccccc1)c1ccccc1 .
Result: > 100 µM

Q: Give the measured TGI of COC(=O)[C@H](Cc1cn(C)cn1)NC(=O)[C@H](C)NC(=O)Nc1cc(C(F)(F)F)cc(C(F)(F)F)c1 .
Result: > 10 µM

Q: Give the measured TGI of NCCN1C(=O)c2ccccc2C1c1ccc(Cl)cc1 (centres undefined) .
Result: > 100 µM

Q: Give the measured TGI of Cn1cc(C(=O)c2ccccc2)cc(C(=O)c2ccccc2)c1=O .
Result: > 100 µM

Q: Give the measured TGI of COC(=O)C1(SC)C2CCC3C2CCC31 (centres undefined) .
Result: > 100 µM

----------
Exercise: state measured GI50 for each of the molecules provided.
- Tested on: A549 NSCLC
- testDetails: NCI tumour cell line growth inhibition, 48 h

Q: A549 NSCLC / GI50 / COC(=O)[C@H](Cc1cn(C)cn1)NC(=O)[C@H](C)NC(=O)Nc1cc(C(F)(F)F)cc(C(F)(F)F)c1 : value?
Result: > 10 µM

Q: A549 NSCLC / GI50 / COc1cc2c(c(OC)c1OC)-c1ccc(N=NC(N)=S)c(=O)cc1[C@@H](NC(C)=O)CC2 : value?
Result: 3.63 µM

Q: A549 NSCLC / GI50 / COc1c(N2CCN(CN3C(=O)C(=O)c4cc(Cl)ccc43)C(C)C2)c(F)cc2c(=O)c(C(=O)O)cn(C3CC3)c12 (stereo unspecified) : value?
Result: 49.4 µM

Q: A549 NSCLC / GI50 / COc1cc(Cl)cc(-c2nn(-c3cccc(NC(=O)Nc4ccc(Cl)c(Cl)c4)c3)cc2-c2ccncc2)c1 : value?
Result: 1.48 µM

Q: A549 NSCLC / GI50 / Cc1ccc(-n2nnnc2-c2cnc(N3CCOCC3)nc2-c2cccc(C(F)(F)F)c2)cc1 : value?
Result: 2.26 µM

Q: A549 NSCLC / GI50 / CCCCCCCCCCCCCC[n+]1ccc(C)cc1 : value?
Result: 1.53 µM

Q: A549 NSCLC / GI50 / Cc1nc2ccccc2nc1N=Nc1ccccc1 : value?
Result: 37.3 µM

Q: A549 NSCLC / GI50 / NC(=O)c1sc(-n2cnc3cc(C(F)(F)F)ccc32)cc1OCc1ccccc1Br : value?
Result: > 25 µM

Q: A549 NSCLC / GI50 / COc1ccc(-c2c3c(nc4n[nH]c(-c5ccc(Cl)cc5)c24)-c2ccccc2C(=O)C3=O)cc1 : value?
Result: 1.83 µM

Q: A549 NSCLC / GI50 / COCCOCCOCc1n(Cc2ccc3ccccc3n2)c2ccccc2[n+]1Cc1ccc2ccccc2n1 : value?
Result: 3.21 µM

Q: A549 NSCLC / GI50 / CN(C)c1ccc(/C=N/S(=O)(=O)c2ccc(-n3c(-c4ccccc4)nc4c(Br)cc(Br)cc4c3=O)cc2)cc1 : value?
Result: 34 µM

----------
Exercise: state measured TGI for each of the compounds provided.
- Test system: KM12 colon
- testDetails: NCI tumour cell line growth inhibition, 48 h

Q: Give the measured TGI of Cc1cccc(CC(Cc2ccc(C)cc2C(=O)O)C(=O)O)c1 (stereo not given) .
Result: > 100 µM

Q: Give the measured TGI of N/C1=C/C(=O)NC(=O)c2c(c3ccccc3oc2=O)C1 .
Result: > 100 µM

Q: Give the measured TGI of C=C1C(=O)O[C@H]2C[C@@H]1[C@@H](O)[C@H](O)[C@@H](C)CCCC(C)=CCC[C@@]2(C)O .
Result: > 100 µM

Q: Give the measured TGI of NC(=S)N1N=C2c3ccccc3CC[C@H]2[C@@H]1c1ccc(Cl)cc1 .
Result: > 100 µM

Q: Give the measured TGI of O=C1CN(c2cccc(Cl)c2)C(=O)CN1NCNN1CC(=O)N(c2cccc(Cl)c2)CC1=O .
Result: > 100 µM

Q: Give the measured TGI of COc1ccc(-c2c(-c3ccccc3)c(C)nc3nc(SC)nc(SC)c23)cc1OC .
Result: > 100 µM

Q: Give the measured TGI of Nc1nc(N)c2nc3c(nc2n1)CCCCCCCCCC3 .
Result: > 100 µM

Q: Give the measured TGI of O=C(/C(=C\I)c1ccccc1)c1ccccc1 .
Result: 8.09 µM

Q: Give the measured TGI of Cc1cccc(N2C(=O)C3c4[nH]c5ccc(C)cc5c4C4CCC(C(C)(C)C)CC4C3C2=O)c1 (stereo not given) .
Result: 38 µM

Q: Give the measured TGI of C[C@@H]1CC(=O)C[C@@H]2CC[C@H]3[C@@H]4CC[C@H](OC(=O)c5cccc6cc7ccccc7nc56)[C@H]4CC[C@@H]3[C@H]21 .
Result: 31.5 µM

----------
- System: NCI-H460 lung
Allowed answers: active, inactive

Q: Write down the call the test reported for this molecule. Item: CC1SC2(CCCCC2)N(NC(=O)c2[nH]c3ccc(Br)cc3c2-c2ccccc2)C1=O (stereo not given)
Result: inactive

Q: Write down the call the test reported for this molecule. Item: CCCCCCNCc1cc(C(C)(C)C)cc(CNCCCCCC)c1O
Result: inactive

Q: Write down the call the test reported for this molecule. Item: Cc1cc(O)c(C2=NN(c3ccc(S(N)(=O)=O)cc3)C(/C=C/c3ccccc3)C2)cc1Cl (stereo not given)
Result: inactive

Q: Write down the call the test reported for this molecule. Item: NC(CSSCC(N)C(=O)O)C(=O)O (stereo not given)
Result: inactive

Q: Write down the call the test reported for this molecule. Item: CCCCNc1ccc(Nc2ccccc2)cc1
Result: inactive

Q: Write down the call the test reported for this molecule. Item: O=C1/C(=C/c2ccc(O)cc2)COc2ccc(O)c(O)c21
Result: inactive

Q: Write down the call the test reported for this molecule. Item: CC(=O)O[C@H]1CC[C@@]2(C)C(=C/C(=N/OCCN3CCCC3)[C@H]3[C@@H]4CC[C@H](OC(C)=O)[C@@]4(C)CC[C@@H]32)C1
Result: inactive

Q: Write down the call the test reported for this molecule. Item: Cc1cccc2c3c(sc12)C(c1ccc(F)cc1)C(C#N)=C(N)O3 (stereo not given)
Result: active

Q: Write down the call the test reported for this molecule. Item: COc1cc2c(c(OC)c1OC)-c1ccc(N=NC(N)=S)c(=O)cc1[C@@H](NC(C)=O)CC2
Result: active

Q: Write down the call the test reported for this molecule. Item: CC([O-])=C1C(=O)c2ccccc2C1=O.CC([O-])=C1C(=O)c2ccccc2C1=O.CC[O-].CC[O-].[Ti+4]
Result: inactive

----------
- Tested on: SK-OV-3 ovarian
- testDetails: NCI tumour cell line growth inhibition, 48 h; in the data active means GI50 below about 0.43 µM; inactive means the rest
Allowed answers: active, inactive

Q: Write down the call the test reported for this compound. Item: COc1ccc(C(=O)c2sc3nc(-c4cccs4)ccc3c2N)cc1OC
Result: inactive

Q: Write down the call the test reported for this compound. Item: Cc1nc2ccccc2nc1N=Nc1ccccc1
Result: inactive

Q: Write down the call the test reported for this compound. Item: NC(=O)c1sc(-n2cnc3cc(C(F)(F)F)ccc32)cc1OCc1ccccc1Br
Result: inactive

Q: Write down the call the test reported for this compound. Item: CC(=O)/C=C/c1ccc(OCc2ccc(Cl)cc2)cc1
Result: inactive

Q: Write down the call the test reported for this compound. Item: Cc1cc(O)c(C2=NN(c3ccc(S(N)(=O)=O)cc3)C(/C=C/c3ccccc3)C2)cc1Cl (stereo not drawn)
Result: inactive

Q: Write down the call the test reported for this compound. Item: Nc1nc(N)c2nc3c(nc2n1)CCCCCCCCCC3
Result: inactive

Q: Write down the call the test reported for this compound. Item: O=C1CC/C(=C/COc2cc(=O)oc3ccccc23)O1
Result: inactive

Q: Write down the call the test reported for this compound. Item: Cn1cc(C2=C(Nc3ccccc3)C(=O)NC2=O)c2ccccc21
Result: inactive

Q: Write down the call the test reported for this compound. Item: O=Cc1ccc(-c2ccc(-c3nc4ccccc4s3)cc2)s1
Result: inactive

Q: Write down the call the test reported for this compound. Item: CCCCNc1ccc(Nc2ccccc2)cc1
Result: inactive

Q: Write down the call the test reported for this compound. Item: COc1cc(Cl)cc(-c2nn(-c3cccc(NC(=O)Nc4ccc(Cl)c(Cl)c4)c3)cc2-c2ccncc2)c1
Result: inactive

Q: Write down the call the test reported for this compound. Item: Cl.Fc1c[c-]c(-c2ccccn2)c(F)c1.[Pt].c1ccc([PH+](C[PH+](c2ccccc2)c2ccccc2)c2ccccc2)cc1
Result: active

Q: Write down the call the test reported for this compound. Item: CC(=O)O[C@H]1CC[C@@]2(C)C(=C/C(=N/OCCN3CCCC3)[C@H]3[C@@H]4CC[C@H](OC(C)=O)[C@@]4(C)CC[C@@H]32)C1
Result: inactive
